As shown below, each of these compounds has a reported melting point value.
parameter: melting point

>>> df
                         structure_notation  experimental_result
0  CC(C)n1nc(-c2c(-c3ccccc3)nc(N)nc2N(C)C)ccc1=O        293 to 296 °C
1  Cn1nc(-c2c(NCc3ccccn3)nc(N)nc2-c2ccccc2)ccc1=O        248 to 250 °C
2  CC(C)n1nc(-c2cnc(NCc3ccccn3)nc2-c2ccccc2)ccc1=O      143 to 144.5 °C
3  CC(C)n1nc(-c2c(-c3ccccc3)nc(N)nc2-n2cnc3ccccc32)ccc1=O        242 to 244 °C
4  COC(=O)COc1nc(N)nc(-c2ccccc2)c1-c1ccc(=O)n(C(C)C)n1      150 to 152.5 °C
5  CCCNc1nc(N)nc(-c2ccccc2)c1-c1ccc(=O)n(C(C)C)n1        209 to 212 °C
6  CC(C)n1nc(-c2c(NCC(N)=O)nc(N)nc2-c2ccccc2)ccc1=O      235 to 237.5 °C
7  CC(C)n1nc(-c2cnc(N3CCOCC3)nc2-c2ccccc2)ccc1=O      200.5 to 202 °C

Where do the numbers come from? From patent US20050043315A1.
